These data points were gathered from patent US20190105367A1.

- Tested on: A. baumannii J2
- protocol_text: Preliminary MBC without and with sub-inhibitory polymyxin B (Example 4)
- Assay type: cell-based, Acinetobacter baumannii
- conditions_used: Acinetobacter baumannii, J2, read-out: MBC +[…] PB, A. baumannii J2; +[…] polymyxin B; preliminary MBC; 1st experiment
# maps each entry to its MBC
assay_metric: MBC (µg/mL)

| compound | value_comparator | measured_number |
| --- | --- | --- |
| C[C@@H](O)[C@H]1C(=O)N2C(C(=O)O)=C(S[C@@H]3CN[C@H](C(=O)N(C)C)C3)[C@H](C)[C@H]12 [Meropenem] | = | 1 |
| COc1c(N2C[C@@H]3CCCN[C@@H]3C2)c(F)cc2c(=O)c(C(=O)O)cn(C3CC3)c12 [Moxifloxacin] | = | 8 |
| Cc1c(-c2ccc(CN)cc2)ccn2c(=O)c(C(=O)O)cc(C3CC3)c12 [Compound 5] | = | 0.5 |
| Cc1c(-c2ccc(N)cc2)c(F)cn2c(=O)c(C(=O)O)cc(C3CC3)c12 [Compound 7] | ≤ | 0.03 |
| Cc1c(-c2ccc(N)c(F)c2)ccn2c(=O)c(C(=O)O)cc(C3CC3)c12 [Compound 1] | ≤ | 0.03 |
| Cc1c(-c2cc(F)c(N)cc2F)ccn2c(=O)c(C(=O)O)cc(C3CC3)c12 [Compound 2] | ≤ | 0.03 |
| NCC[C@H](O)C(=O)N[C@@H]1C[C@H](N)[C@@H](O[C@H]2O[C@H](CN)[C@@H](O)[C@H](O)[C@H]2O)[C@H](O)[C@H]1O[C@H]1O[C@H](CO)[C@@H](O)[C@H](N)[C@H]1O [Amikacin, reference compound] | = | 4 |
